# measured target: Human PD-L1 expressed on cells (human, UniProt Q9NZQ7 19-290)
# Sequence (Q9NZQ7 19-290 limits assumed): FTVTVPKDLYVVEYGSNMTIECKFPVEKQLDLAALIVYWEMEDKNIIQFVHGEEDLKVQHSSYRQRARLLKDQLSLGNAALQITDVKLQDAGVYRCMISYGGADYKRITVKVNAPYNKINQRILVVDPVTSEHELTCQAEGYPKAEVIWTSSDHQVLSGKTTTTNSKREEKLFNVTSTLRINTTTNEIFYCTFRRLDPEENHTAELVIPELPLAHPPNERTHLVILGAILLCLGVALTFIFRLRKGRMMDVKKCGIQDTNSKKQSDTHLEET
# method summary: cell-based or functional assay
Quick list: mean EC50, IFNγ induction, monocyte-T cell co-culture per entry.
Value expressed in nM; do not type the unit.

[
  {
    "binder": "84G09 (human IgG1) (antibody, V domains shown, also called clone 84609; lead antibody) VH: EVQLVESGGGLVQPGRSLRLSCAASGFTFDDYAMHWVRQTPGKGLEWVSGISWKSNIIGYADSVKGRFTISRDNAKNSLYLQMNSLRAEDTALYYCARDITGSGSYGWFDPWGQGTLVTVSS VL: DIQMTQSPSSLSASVGDRVTITCRASQSISSYLNWYQQKPGKAPKPLIYVASSLQSGVPSSFSGSGSGTDFTLTISSLQPEDFATYYCQQSYSNPITFGQGTRLEIKR",
    "measured number": 0.081
  },
  {
    "binder": "416E01 (human IgG1) (antibody, V domains shown) VH: EVQLAESGGGLVQPGGSLRLSCAASGFTFSNYAMSWVRQTPGKGLEWVSAISFSGGTTYYADSVKGRFTISRDNSKNTLYLHMNSLRADDTAVYYCAKDEAPAGATFFDSWGQGTLVTVSS VL: DIQMTQSPSSVSASVGDRVTITCRASQGIRRWLAWYQQKPGKAPKLLISGASSLQSGVPSRFSGSGSGTDFTLIITSLQPEDFATYYCQQANSFPITFGQGTRLEIKR",
    "measured number": 0.064
  },
  {
    "binder": "413G05 (antibody, human IgG1, kappa, V domains shown) VH: QVQLVESGGGLVKPGGSLRLSCAASGFTFSDYYMSWIRQVPGKGLEWVSYISTSGSTIYYADSVKGRFTISRDNAKNSLYLQMNSLRAEDAAVYHCARGITGTNFYHYGLGVWGQGTTVTVSS VL: DIQMTQSPSSVSASVGDRVTITCRASQGINSWLAWYQQKPGKAPKLLIYAASTLQSGVPSRFSGSGSGADFTLTISSLQPEDFATYYCQQVNSFPLTFGGGTKVEIKR",
    "measured number": 0.082
  }
]

Could you now look at the following binder, please?
IN: Param item = 414B06 (antibody, V domains shown, also called 414606) VH: EVHLVESGGGLVQPGGSLRLSCAASGFTFSSYWMNWVRQAPGKGLEWVANIKQDGSEKYYVDSVKGRFTVSRDNAKNSLYLQMNSLRAEDTAVYYCARVRQWSDYSDYWGQGTPVTVSS VL: DIQMTQSPSSVSASVGDRVTITCRASQGISSWLAWYQQKPGKAPKLLIYAASSLQSGVPSRFSGSGSGTDFTLTISSLQPEDFATYYCQQANSFPFTFGPGTKVDIKR ; retrieve measured mean EC50, IFNγ induction, monocyte-T cell co-culture.
OUT: 0.012

Where do these numbers come from? They come from patent US20210380699A1.
